Recorded % ACh @ 10 μM Oocyte, one value per entry.
# target: human α7 nAChRs transiently expressed in Xenopus laevis oocytes (Homo sapiens (Human))
# Sequence (P36544 23-502 limits assumed): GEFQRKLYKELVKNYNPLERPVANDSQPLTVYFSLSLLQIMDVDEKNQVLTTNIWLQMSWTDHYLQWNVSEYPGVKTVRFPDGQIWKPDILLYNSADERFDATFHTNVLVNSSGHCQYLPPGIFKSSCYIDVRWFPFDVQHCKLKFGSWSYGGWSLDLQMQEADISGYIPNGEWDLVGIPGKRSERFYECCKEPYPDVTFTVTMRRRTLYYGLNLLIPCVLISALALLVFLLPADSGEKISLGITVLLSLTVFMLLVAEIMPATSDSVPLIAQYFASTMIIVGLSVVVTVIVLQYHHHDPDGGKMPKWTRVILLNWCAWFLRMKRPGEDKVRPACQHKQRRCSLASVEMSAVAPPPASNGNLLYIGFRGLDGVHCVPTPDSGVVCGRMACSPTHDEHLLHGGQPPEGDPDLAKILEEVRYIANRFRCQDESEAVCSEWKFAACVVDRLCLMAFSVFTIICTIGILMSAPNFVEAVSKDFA
# measurement-notes: Oocyte electrophysiology screen (TEVC)
# Format: cell-based
# cond: 0.01 mM test compound, peak current relative to 0.2 mM ACh
Structures can show the parent of a compound that is named as a salt.
Write the number in % ACh without appending the unit.

Some molecules with known % ACh @ 10 μM Oocyte results, for comparison:
>>> data_value("Cc1cc2cc(C(=O)N[C@@H]3C4CCN(CC4)C34CC4)ccc2o1 [(R)-91, hydrochloride]")
653
>>> data_value("Cn1cnc2ccc(C(=O)N[C@@H]3C4CCN(CC4)C34CC4)cc21 [(R)-96, hydrochloride]")
0
>>> data_value("CC1(C)[C@H](NC(=O)c2cc3ccc(N)cc3s2)C2CCN1CC2 [(R)-49, hydrochloride]")
576
>>> data_value("Cc1nc2cc(C(=O)N[C@@H]3C4CCN(CC4)C3(C)C)ccc2o1 [(R)-32]")
61
>>> data_value("CC1(C)[C@@H](NC(=O)c2cc3ccoc3cn2)C2CCN1CC2 [(S)-22, hydrochloride]")
25
>>> data_value("O=C(N[C@@H]1C2CCN(CC2)C12CC2)c1cc2ccc(C3CC3)c(F)c2s1 [(R)-159, hydrochloride]")
24
>>> data_value("COc1ccc2sc(C(=O)N[C@H]3C4CCN(CC4)C3(C)C)cc2c1 [(S)-21, hydrochloride]")
1

Now consider a different molecule.
Lab note: molecule O=C(N[C@@H]1C2CCN(CC2)C12CC2)c1cc2cccc(Cl)c2o1 [(R)-164, hydrochloride] tested on human α7 nAChRs transiently expressed in Xenopus laevis oocytes (Homo sapiens (Human)); recorded % ACh @ 10 μM Oocyte was 266
